Experiment: chemical genetic growth profiling, strain panel (AID 1159580);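 note: tested at 20 µM; growth read once vehicle control cultures reached saturation at 30 °C; 1 = growth at the plate median or of vehicle wells; lower values mean less growth of the strain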
Conditions: S. cerevisiae deletion strains, growth OD, locus YKL048C, strain ELM1
About 2,000 (36%) of roughly 5,500 compounds were called active. Inconclusive results (about 18%) are left out. Cut-off read from the data, not from the text of the source: active = normalized growth mostly below about 0.91 (no sharp cut-off); inconclusive = no clear call, values can overlap the other calls; inactive = mostly above about 0.92. This is one part of the list.
The reply should name one outcome from yes = active, no = inactive

Recorded results for 10 molecules are shown here.
- CC(C)(C)c1cc(C(=O)/C(C#N)=N\Nc2ccc(Cl)cc2)no1: yes
- Oc1ccc(-n2nnnc2SCc2ccc(OC(F)(F)F)cc2)cc1: yes
- CC(NC(=S)Nc1ccc(Oc2ccc(Cl)cc2)cc1)c1ccccc1 (stereo not given): no
- FC(F)(F)c1ccc(C2Sc3ccccc3N=C3c4ccccc4CC32)cc1 (stereo not given): no
- O=C(O)c1cccc2cccc(C(=O)O)c12: yes
- Cc1c(Cl)cccc1N=C1SCC(=O)N1Cc1ccco1: no
- O=C(Nc1ccc(OC(F)(F)F)cc1)Nc1cncc(C(F)(F)F)c1: no
- FC(F)(F)c1ccc(NC(=S)Nc2ccc(C(F)(F)F)cc2Cl)c(Cl)c1: no
- Cc1nc([N+](=O)[O-])cn1CC(=O)c1ccc(Cl)cc1: no
- O=C(OCc1ccc(Oc2ccc(Cl)cc2Cl)c([N+](=O)[O-])c1)c1ccc([N+](=O)[O-])o1: no

Data request: Outcome logged for CSc1nc(Sc2n[nH]c(-c3ccccc3)n2)cc(Sc2n[nH]c(-c3ccccc3)n2)n1 in this assay:
Data returned: no

Data request: Also N#CC(C#N)=NNc1ccc(-n2ccc(C(F)(F)F)n2)cc1 ?
Data returned: yes

Data request: Also O=C(SCc1c(Cl)cccc1Cl)c1ccc([N+](=O)[O-])o1 ?
Data returned: yes

Data request: Also O=C(N/N=C\c1cc(Cl)cc(Cl)c1O)c1ccccc1Oc1ccccc1 ?
Data returned: no

Data request: Also Cc1nc(C(F)(F)F)ccc1-c1nnc(SC(=O)c2ccc(Cl)cc2)o1 ?
Data returned: yes

###

Assay: chemical genetic growth profiling, strain panel (AID 1159580)
Conditions: S. cerevisiae deletion strains, growth OD, locus YER002W, strain NOP16, hits give low values
The campaign covered roughly 5,500 compounds. About 2,000 (36%) were called active. Inconclusive results (about 18%) are left out. The list shows a part of the results.
Recorded normalized growth, one value per entry.

Here's what some known entries look like.
* O=c1[nH]c2ccccc2n1CCCN1CCC(n2c(=O)[nH]c3cc(Cl)ccc32)CC1 | 0.997 (inactive)
* Nc1nc2c(nc(Br)n2C2OC3COP(=O)(O)O[C@@H]3C2O)c(=O)[nH]1 (stereo not given in full) | 1.02 (inactive)
* CC(C(=O)O)c1ccc(CC2CCCC2=O)cc1 (stereo not given) | 0.988 (inactive)

Data request: Could you tell me which normalized growth is on file for CN1Cc2c(N)cccc2C(c2ccccc2)C1 (stereo not given) ?
Data returned: 1.01 (inactive)

Data request: Also O=C(OC1CCN(CCCl)CC1)C(c1ccccc1)c1ccccc1 ?
Data returned: 1 (inactive)

###

Assay: chemical genetic growth profiling, strain panel (AID 1159580)
Conditions: S. cerevisiae deletion strains, growth OD, locus YCR088W, strain abp1, hits give low values
Hit rate of the full screen: of about 5,500 compounds, about 2,000 (36%) were called active. Inconclusive results (about 18%) are left out. The list shows a part of the results.
Reported Endpoint: normalized growth
Quick one: just the number, no unit, thanks!

- CCNc1nc(Cl)nc(NC(C)C)n1: 1

Data request: Could you tell me which normalized growth is on file for C[C@]12C=CC(=O)C=C1CCC1C2C(=O)C[C@@]2(C)C1CC[C@]2(O)C(=O)CO (stereo partly drawn) ?
Data returned: 0.989

Data request: Also CC(C)=CCC1=C(O)c2ccccc2C(=O)C1=O ?
Data returned: 0.799

Data request: Also CCOc1ccc(Cc2nccc3cc(OCC)c(OCC)cc23)cc1OCC ?
Data returned: 0.969

Data request: Also COc1cc(OC)c2c(c1Cl)OC1(C2=O)C(O)=CC(=O)CC1C (stereo not drawn) ?
Data returned: 1.01

Data request: Also O=C(CCCN1CC=C(n2c(=O)[nH]c3ccccc32)CC1)c1ccc(F)cc1 ?
Data returned: 1

Data request: Also CCCCC/C=C\C/C=C\C/C=C\C/C=C\CCCC(=O)O ?
Data returned: 0.975

Data request: Also COc1cc(O)c(C(=O)O)c(O)c1 ?
Data returned: 0.984

Data request: Also O=C1c2ccccc2C(=O)c2c(O)c(O)cc(O)c21 ?
Data returned: 0.548

Data request: Also CC(C)=CCC/C(C)=C/COc1ccc2ccc(=O)oc2c1 ?
Data returned: 0.99

Data request: Also Cc1cccc(N(C)C(=S)Oc2ccc3ccccc3c2)c1 ?
Data returned: 0.995

Data request: Also CC(=O)OC1CCC23C(=O)OC45CCC(C6=CC(=O)OC6)C4(C)CCC2C5CCC3(O)C1 (stereo not drawn) ?
Data returned: 0.986

Data request: Also CCCc1nc(C(C)(C)O)c(C(=O)OCc2oc(=O)oc2C)n1Cc1ccc(-c2ccccc2-c2nn[nH]n2)cc1 ?
Data returned: 0.977

###

Assay: chemical genetic growth profiling, strain panel (AID 1159580)
Settings: S. cerevisiae deletion strains, growth OD, locus YDR195W, strain ref2
The campaign covered roughly 5,500 compounds. About 2,000 (36%) were called active. About 18% were inconclusive and are not listed. Cut-off read from the data, not from the text of the source: active = normalized growth mostly below about 0.91 (no sharp cut-off); inconclusive = no clear call, values can overlap the other calls; inactive = mostly above about 0.92. This is one part of the list.
The reply should name one outcome from active, inactive

Recorded results for 3 molecules are shown here.
* CC1(C)C=Cc2c(cc3occ(-c4ccc5c(c4)OCO5)c(=O)c3c2O)O1 | inactive
* N#C/C(=C\c1ccc(O)cc1)C(=O)O | inactive
* Cn1c([N+](=O)[O-])cnc1COC(N)=O | inactive

Next item in the queue.
Data request: Outcome logged for COc1cc2c(cc1-c1coc3c4c(c(OC)cc3c1=O)OC(C)(C)C=C4)OCO2 in this assay:
Data returned: active

###

Recorded normalized growth, one value per entry.
Experiment: chemical genetic growth profiling, strain panel (AID 1159580);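 note: tested at 20 µM; growth read once vehicle control cultures reached saturation at 30 °C; 1 = growth at the plate median or of vehicle wells; lower values mean less growth of the strain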
Conditions: S. cerevisiae deletion strains, growth OD, locus YAL026C, strain drs2, hits give low values
The campaign covered roughly 5,500 compounds. About 2,000 (36%) were called active. Roughly 18% stayed inconclusive and do not appear here. The list shows a part of the results.
Quick one: just the number, no unit, thanks!

Here's what some known entries look like.
• Cc1nccc2c1[nH]c1ccccc12 = 0.975
• CC(=O)Oc1ccc2c(c1)CCC1C2CC[C@@]2(C)C1CC[C@@H]2OC(C)=O (some centres not stated) = 0.984
• COc1cc(OC)c2c(c1Cl)OC1(C2=O)C(O)=CC(=O)CC1C (configuration not stated) = 1.01
• CCC(=O)O[C@H]1CCC2C3CCc4cc(O)ccc4C3CC[C@@]21C (some centres not stated) = 1
• COc1c(O)cc(O)cc1O = 1.02

Data request: Could you tell me which normalized growth is on file for C[C@]12C=CC(=O)C=C1CCC1C2CC[C@]2(C)C(=O)CCC12 (some centres not stated) ?
Data returned: 0.983

Data request: Also COC(=O)C1=CO[C@@H](O[C@@H]2O[C@H](CO)[C@@H](O)[C@H](O)[C@H]2O)[C@@H]2[C@@H](C)[C@@H](O)C[C@H]12 ?
Data returned: 1.01

###

Experiment: chemical genetic growth profiling, strain panel (AID 1159580);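 note: tested at 20 µM; growth read once vehicle control cultures reached saturation at 30 °C; 1 = growth at the plate median or of vehicle wells; lower values mean less growth of the strain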
Conditions: S. cerevisiae deletion strains, growth OD, locus YHR013C, strain ard1
Out of some 5,500 compounds screened, about 2,000 (36%) were called active. Roughly 18% stayed inconclusive and do not appear here. Rule as the data show it: active = normalized growth mostly below about 0.91 (no sharp cut-off); inconclusive = no clear call, values can overlap the other calls; inactive = mostly above about 0.92. This is one part of the list.
The reply should name one outcome from Y (active), N (inactive)

Recorded results for 5 compounds are shown here.
• COc1ccc2c(=O)c(-c3cc4c(cc3OC)OCO4)coc2c1 = N
• O=C1OC(=O)C2C3CCC(O3)C12 (configuration not stated) = N
• COc1cc2ccc(=O)oc2cc1O = N
• COc1cc2ccc(=O)oc2c2ccoc12 = N
• C[C@]12CCC3C(CC[C@H]4CC(=O)CC[C@]34C)C1CCC2=O (some centres not stated) = N

Data request: Outcome logged for O=C1c2ccccc2C(=O)c2c(O)c(O)cc(O)c21 in this assay:
Data returned: Y

Data request: Also CSCCC(NC=O)C(=O)NC(CC(C)C)C(=O)NC(Cc1ccccc1)C(=O)O (configuration not stated) ?
Data returned: N

Data request: Also CCC(=O)O[C@H]1CCC2C3CCc4cc(O)ccc4C3CC[C@@]21C (some centres not stated) ?
Data returned: N

Data request: Also CC(=O)OC1CCC2C3CCc4cc(O)ccc4C3CCC12C (configuration not stated) ?
Data returned: N

Data request: Also OCCN1CCN(CCCN2c3ccccc3Sc3ccc(Cl)cc32)CC1 ?
Data returned: N

###

Experiment: chemical genetic growth profiling, strain panel (AID 1159580);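 note: tested at 20 µM; growth read once vehicle control cultures reached saturation at 30 °C; 1 = growth at the plate median or of vehicle wells; lower values mean less growth of the strain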
Settings: S. cerevisiae deletion strains, growth OD, locus YJL092W, strain hpr5, hits give low values
About 2,000 (36%) of roughly 5,500 compounds were called active. Roughly 18% stayed inconclusive and do not appear here. The list shows a part of the results.
Recorded normalized growth, one value per entry.
Quick one: just the number, no unit, thanks!

Here's what some known entries look like.
* CC1(C)C=Cc2c(cc3occ(-c4ccc5c(c4)OCO5)c(=O)c3c2O)O1 | 0.983
* CCCc1nc(C(C)(C)O)c(C(=O)OCc2oc(=O)oc2C)n1Cc1ccc(-c2ccccc2-c2nn[nH]n2)cc1 | 0.982
* Nc1ncnc2nc[nH]c12 | 0.99

Data request: Could you tell me which normalized growth is on file for CCCCC(=O)O[C@H]1CCC2C3CCc4cc(O)ccc4C3CC[C@@]21C (stereo partly specified) ?
Data returned: 1.01

Data request: Also CC(=O)OC1CCC2C3CCc4cc(O)ccc4C3CCC12C (stereo unspecified) ?
Data returned: 0.986

Data request: Also COc1c2c(cc3occ(-c4ccc5c(c4)OCO5)c(=O)c13)OC(C)(C)C=C2 ?
Data returned: 0.99

Data request: Also O=C(CCCN1CC=C(n2c(=O)[nH]c3ccccc32)CC1)c1ccc(F)cc1 ?
Data returned: 0.984
